target: cdk4/cyclin D1 (Homo sapiens, UniProt P11802); test: Cyclin-dependent kinase assay, cdk4/cyclin D1; format: biochemical; settings: cyclin D1/cdk4; GST-pRb substrate, 10 µM ATP
Sequence (P11802 whole entry): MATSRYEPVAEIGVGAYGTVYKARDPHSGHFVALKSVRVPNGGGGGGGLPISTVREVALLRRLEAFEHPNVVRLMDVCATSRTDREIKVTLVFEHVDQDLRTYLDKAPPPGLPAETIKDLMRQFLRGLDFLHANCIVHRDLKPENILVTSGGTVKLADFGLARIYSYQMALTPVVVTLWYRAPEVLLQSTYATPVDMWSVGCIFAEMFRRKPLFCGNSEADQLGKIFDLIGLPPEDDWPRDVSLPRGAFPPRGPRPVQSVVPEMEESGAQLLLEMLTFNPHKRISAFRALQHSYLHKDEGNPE
Sequence (P24385 whole entry partner): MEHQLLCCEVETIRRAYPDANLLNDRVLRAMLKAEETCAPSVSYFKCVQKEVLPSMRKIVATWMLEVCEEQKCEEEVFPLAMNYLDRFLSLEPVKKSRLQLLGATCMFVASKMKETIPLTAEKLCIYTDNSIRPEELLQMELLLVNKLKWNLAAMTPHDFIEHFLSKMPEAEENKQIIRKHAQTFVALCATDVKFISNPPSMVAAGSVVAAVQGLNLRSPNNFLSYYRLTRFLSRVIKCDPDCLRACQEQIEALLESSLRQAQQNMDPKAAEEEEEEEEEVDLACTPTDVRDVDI
Structures can show the parent of a compound that is named as a salt.
Classify: 1.0 when IC50 is strictly less than 200 nM; 0.0 when IC50 is not.

molecule: N[C@H]1CC[C@H](Nc2nc(NC3CCN(S(=O)(=O)c4ccc(Cl)cc4)CC3)c3ncn(C4CCCC4)c3n2)CC1 [compound 108, dihydrochloride]
assignedClass: 1.0

molecule: N[C@H]1CC[C@H](Nc2nc(NC3CCN(C(=O)Nc4cccc(Br)c4)CC3)c3ncn(C4CCCC4)c3n2)CC1 [compound 170, dihydrochloride]
assignedClass: 1.0

molecule: N[C@H]1CC[C@H](Nc2nc(NC3CCN(C(=O)Oc4ccccc4[N+](=O)[O-])CC3)c3ncn(C4CCCC4)c3n2)CC1 [compound 99, dihydrochloride]
assignedClass: 0.0

molecule: N[C@H]1CC[C@H](Nc2nc(NC3CCN(S(=O)(=O)Cc4ccccc4)CC3)c3ncn(C4CCCC4)c3n2)CC1 [compound 119, dihydrochloride]
assignedClass: 1.0

molecule: Cl.Cl.N#Cc1ccc(S(=O)(=O)N2CCC(Nc3nc(N[C@H]4CC[C@H](N)CC4)nc4c3ncn4C3CCCC3)CC2)cc1 [compound 109, dihydrochloride]
assignedClass: 1.0

molecule: CC(C)n1cnc2c(NC3CCN(C(=O)Nc4ccc(OC(F)(F)F)cc4)CC3)nc(N[C@H]3CC[C@H](N)CC3)nc21 [compound 211, dihydrochloride]
assignedClass: 0.0

molecule: N[C@H]1CC[C@H](Nc2nc(NC3CCN(C(=O)COCc4ccccc4)CC3)c3ncn(C4CCCC4)c3n2)CC1 [compound 37, dihydrochloride]
assignedClass: 0.0

molecule: CCNC(=O)N1CCC(Nc2nc(N[C@H]3CC[C@H](N)CC3)nc3c2ncn3C2CCCC2)CC1 [compound 148, dihydrochloride]
assignedClass: 0.0

molecule: CCCNC(=O)N1CCC(Nc2nc(N[C@H]3CC[C@H](N)CC3)nc3c2ncn3C2CCCC2)CC1 [compound 206, dihydrochloride]
assignedClass: 1.0

molecule: CCC(C(=O)N1CCC(Nc2nc(N[C@H]3CC[C@H](N)CC3)nc3c2ncn3C2CCCC2)CC1)c1ccccc1 (relative stereo) [compound 41, dihydrochloride]
assignedClass: 0.0

molecule: Cl.Cl.N[C@H]1CC[C@H](Nc2nc(NC3CCN(C(=O)Oc4ccc([N+](=O)[O-])cc4)CC3)c3ncn(C4CCCC4)c3n2)CC1 [compound 89, dihydrochloride]
assignedClass: 1.0

All figures here come from patent EP1377579B1.
